Molecular target: human GPR84 receptor (Homo sapiens, UniProt Q9NQS5)
Construct: frozen aliquots prepared by acCELLerate
Sequence (Q9NQS5 whole entry): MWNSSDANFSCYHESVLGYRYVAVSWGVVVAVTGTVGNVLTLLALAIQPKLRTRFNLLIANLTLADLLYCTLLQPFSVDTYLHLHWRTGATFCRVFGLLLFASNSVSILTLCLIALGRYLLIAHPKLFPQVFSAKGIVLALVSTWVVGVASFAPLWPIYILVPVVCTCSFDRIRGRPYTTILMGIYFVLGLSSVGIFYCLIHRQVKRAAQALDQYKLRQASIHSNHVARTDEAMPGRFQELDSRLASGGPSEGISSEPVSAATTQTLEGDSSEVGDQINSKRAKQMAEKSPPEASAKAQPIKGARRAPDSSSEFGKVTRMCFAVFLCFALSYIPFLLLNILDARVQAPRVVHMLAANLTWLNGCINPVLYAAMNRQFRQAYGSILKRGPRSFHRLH
Assay: cAMP HTRF assay for identification of cellular GPR84 antagonists
Settings: CHO-K1 cells stably expressing human GPR84; Forskolin + agonist 6-OAU (EC80); average or median values
reported.endpoint: pIC50
pIC50 (log units): -log10 of the concentration in mol/L.

Lab book: pIC50 of C[C@@H]1Cc2oc(C(=O)NC[C@@H]3CCCO3)c(C(F)(F)F)c2-c2nn(C[C@H]3COCCO3)cc21 (single isomer, unassigned) [Example 255-1] noted as 8.52

For CN1CCC(Cn2cc3c(n2)-c2c(oc(C(=O)NC[C@@H]4CCCO4)c2C(F)(F)F)CC3)CC1 the compound record lists pIC50 as 6.82

Lab book: pIC50 of Cc1cccc(Cn2cc3c(n2)-c2c(oc(C(=O)NCCN4CCCC4)c2C)CC3)n1 noted as 6.12

Input Cc1cccc(Cn2cc3c(n2)-c2c(oc(C(=O)NCC4COc5ncccc5O4)c2C)CC3)n1 (racemic) . Output pIC50: 7.11

Reported pIC50 of Cc1c(C(=O)NC[C@@H]2CCCO2)oc2c1-c1nn(CCN3CCNCC3)cc1CC2 : 5.17

Sure, the documented pIC50 for Cc1c(C(=O)NC[C@@H]2CCCO2)oc2c1-c1nn(CC3CCCCO3)cc1CC2 (mixture of isomers) is 6.62

Entry Cc1c(C(=O)NC[C@@H]2COCCO2)oc2c1-c1nn(CC3(C)COC3)cc1CC2 , pIC50 reported as 7.68
